tested on: Rattus norvegicus; assay: Neuromuscular block activity in propofol-induced anesthetized Sprague-Dawley rat model assessed as inhibition of twitch by measuring twitch intensity of quadriceps muscle at 0.04 mg/kg, iv administered as bolus dose by TOF watch monitor analysis relative to control; type: functional

[
  {
    "smiles.notation": "c1c[n+]2ccc1CCCc1cc[n+](cc1)Cc1ccc(cc1)Oc1ccc(cc1)C[n+]1ccc(cc1)CCCc1cc[n+](cc1)Cc1ccc(cc1)Oc1ccc(cc1)C2",
    "inhibition in vivo at 0.04 mg/kg / %": 0
  },
  {
    "smiles.notation": "[Cl-].[Cl-].[Cl-].[Cl-].c1ccc2c(c1)n1c[n+]2Cc2ccc(cc2)Oc2ccc(cc2)C[n+]2cn(c3ccccc32)CCCCCn2c[n+](c3ccccc32)Cc2ccc(cc2)Oc2ccc(cc2)C[n+]2cn(c3ccccc32)CCCCC1",
    "inhibition in vivo at 0.04 mg/kg / %": 0
  },
  {
    "smiles.notation": "[Cl-].[Cl-].[Cl-].[Cl-].c1cc2ccc1C[n+]1ccn(c1)CCCCCn1cc[n+](c1)Cc1ccc(cc1)Oc1ccc(cc1)C[n+]1ccn(c1)CCCCCn1cc[n+](c1)Cc1ccc(cc1)O2",
    "inhibition in vivo at 0.04 mg/kg / %": 100
  }
]
